- measurement_description: qHTS RealTime-Glo MT Cell Viability Assay in HEK293 cells - 16 hour (AID 1224872); further: top concentration of the series differs between compounds; on the % scale 0 is the no-effect control and ±100 the full control effect; nearly all actives have a fitted effect of over 50% in size
- setup_conditions: RealTime-Glo luminescence; series mostly up to 76.8 µM
Results filed as inconclusive are left out. The source made the active and inactive calls. The call rests on the fitted dose curve; in most records, active means well fitted cell-killing curve with a large enough effect in the repeat runs; inconclusive means weak or mixed curves, or effect the other way; inactive means flat fitted curve, though single readings scatter.
I would appreciate it if you answered using one of these outcomes: active, inactive

1. O=C(O)c1ccc(-n2nc(-c3ccccc3O)nc2-c2ccccc2O)cc1    inactive

Lab log entry: CCOC(=O)C(O)c1ccccc1 (stereo not drawn) — outcome as called in the assay?
inactive

Lab log entry: COc1ccc(C(=O)N2CCN(CC(=O)N3CCOCC3)CC2)cc1 — outcome as called in the assay?
inactive

Lab log entry: NCC(=O)CCC(=O)O — outcome as called in the assay?
inactive

Lab log entry: CCCCC — outcome as called in the assay?
inactive

Lab log entry: Cc1cccc(C)c1NC(=O)CN(CC(=O)O)CC(=O)O — outcome as called in the assay?
inactive

Lab log entry: CN1C[C@H]2c3ccccc3Oc3ccc(Cl)cc3[C@@H]2C1 — outcome as called in the assay?
inactive

---

- measurement_description: qHTS assay to identify small molecule agonists of the estrogen receptor beta (ER-beta) signaling pathway - cell viability counter screen (AID 1259380); further: on the % scale 0 is the no-effect control and ±100 the full control effect; nearly all actives have a fitted effect of over 30% in size
- setup_conditions: ER-beta-bla HEK293T viability, CellTiter-Glo luminescence, 16 h; series mostly up to 92.4 µM
Results filed as inconclusive are left out. Activity calls are given as the source filed them. Calls follow the shape of the dose curve; as a rule, active = well fitted cell-killing curve with a large enough effect in the repeat runs; inconclusive = weak or mixed curves, or effect the other way; inactive = flat fitted curve, though single readings scatter.
Listed here: items and their measured activity change, negative = cytotoxicity.

1) NCC(=O)O    4.31% [at 19 µM] (inactive)
2) CN(C)c1ccc(/C=C/c2ccc([N+](=O)[O-])cc2)cc1    -2.6% [at 8.39 µM] (inactive)
3) CC(CSC(=O)c1ccccc1)C(=O)N1C[C@@H](Sc2ccccc2)C[C@H]1C(=O)O (some centres undefined)    0.0866% [at 19 µM] (inactive)

// moving on: another record for activity change, negative = cytotoxicity
For Cc1[nH]c(C)c(Cl)c(=O)c1Cl the compound record lists activity change, negative = cytotoxicity as 2.64% [at 19 µM] (inactive)

---

- measurement_description: qHTS assay to identify small molecule agonists of the estrogen related receptor (ERR) signaling pathway from Tox21 library (AID 1224849); further: on the % scale 0 is the no-effect control and ±100 the full control effect; nearly all actives have a fitted effect of over 15% in size
- setup_conditions: ERR reporter cell line, ONE-Glo luciferase, 18 h; at 92.4 µM (top of the series) unless noted
The source made the active and inactive calls. Calls come from the whole dose curve.
I would appreciate it if you answered using one of these outcomes: active, inactive

1. COc1cc(C(=O)OCCCN2CCCN(CCCOC(=O)c3cc(OC)c(OC)c(OC)c3)CC2)cc(OC)c1OC    inactive
2. Nc1cccc(S(=O)(=O)c2cccc(N)c2)c1    inactive
3. CCC(Cl)CCC(Cl)C(Cl)CC(Cl)C(Cl)C(Cl)CCl (stereo unspecified)    inactive
4. COc1cc2nc(N(C)CCCNC(=O)C3CCCO3)nc(N)c2cc1OC (stereo unspecified)    inactive
5. CC(C)CC(=O)C1C(=O)c2ccccc2C1=O    inactive
6. C=CC(=O)OCCOCCOC(=O)C=C    active

Lab log entry: O=C1CCC(=O)O1 — outcome as called in the assay?
inactive

Lab log entry: O=C(NCC1CN(c2ccc(N3CCOCC3=O)cc2)C(=O)O1)c1ccc(Cl)s1 (stereo unspecified) — outcome as called in the assay?
inactive

Lab log entry: C[C@@H]1C[C@H]2O[C@@]3(O[C@@H]2C(C)(C)O)[C@H](O)[C@@]2(C)[C@@H]4CC[C@H]5C(C)(C)[C@@H](O[C@@H]6OC[C@@H](O)[C@H](O)[C@H]6O)CC[C@@]56C[C@@]46CC[C@]2(C)[C@@H]13 — outcome as called in the assay?
inactive

Lab log entry: CCN(CC)CCNC(=O)c1cc(Br)c(N)cc1OC — outcome as called in the assay?
inactive

Lab log entry: O=C1[C@H]2CCCC[C@H]2C(=O)N1CCCCN1CCN(c2nsc3ccccc23)CC1 — outcome as called in the assay?
inactive

Lab log entry: CCOC(=O)Cc1cccc2ccccc12 — outcome as called in the assay?
inactive

Lab log entry: CN1CCC(N(Cc2cccs2)c2ccccc2)CC1 — outcome as called in the assay?
inactive

Lab log entry: c1cc(CCCc2ccncc2)ccn1 — outcome as called in the assay?
inactive

Lab log entry: O=C(Nc1ccc(S(=O)(=O)N2CCOCC2)cc1)c1cc(Cl)ccc1NS(=O)(=O)c1ccc(Cl)s1 — outcome as called in the assay?
inactive

Lab log entry: CCCCC(CC)CN1C(=O)C2C3C=CC(C3)C2C1=O (stereo unspecified) — outcome as called in the assay?
inactive

Lab log entry: Cc1nn(C)c(Oc2ccccc2)c1/C=N/OCc1ccc(C(=O)OC(C)(C)C)cc1 — outcome as called in the assay?
inactive

Lab log entry: C[C@@H](c1ncncc1F)C(O)(Cn1cncn1)c1ccc(F)cc1F (stereo partly specified) — outcome as called in the assay?
inactive

Lab log entry: CN1Cc2cc(C(=O)N3CCC(C4CCNCC4)CC3)ccc2NC(CC(=O)O)C1=O (stereo unspecified) — outcome as called in the assay?
inactive

Lab log entry: NC(N)=NCCC[C@H](N)C(=O)O — outcome as called in the assay?
inactive

Lab log entry: CN(C)c1ccc(C(c2ccccc2)c2ccc(N(C)C)cc2)cc1 — outcome as called in the assay?
inactive
